Reference source for all entries: ChEMBL document CHEMBL1961873

Biological target: Dual specificity protein kinase CLK2 (Homo sapiens)
Conditions: at 0.1 µM
Description: GSK_PKIS: CLK2 mean inhibition at 0.1 uM [Nanosyn]
RECORDED METRIC: inhibition (%)
State just the number; it will be interpreted in %.

COc1ccc(-c2ccncc2)cc1C(N)=O | 0.6

The value of inhibition measured for the compound `CS(=O)(=O)CCN(CC#N)Cc1ccc(-c2ccc3ncnc(Nc4ccc(OCc5cccc(F)c5)c(Cl)c4)c3c2)o1` turned out to be 1.05

# compound `COc1cccc(-n2ncc3c(N/N=C/c4cccc(F)c4)ncnc32)c1` ; its inhibition = 2.25

`COc1ccc(-c2nn3ncccc3c2-c2ccnc(Nc3ccc(Cl)c(C(F)(F)F)c3)n2)cc1` yielded inhibition of 0.95

inhibition in this record for `COc1ccc(-c2coc3ncnc(N)c23)cc1` : 3.15

Form field inhibition, entry `Cc1nnc(-c2ccc(C)c(-c3ccc(C(=O)Nc4cccc(C#N)c4)cc3)c2)o1` : 1.15

In plain terms, `[O-][S+]1CCN(Cc2ccc(-c3ccc4ncnc(Nc5ccc(OCc6ccccc6)c(F)c5)c4c3)o2)CC1` has a documented inhibition of 1.05

* * *

Molecular target: Mitogen-activated protein kinase 11 (Homo sapiens);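 also: reported values are averaged (mean) percent inhibition of p38beta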
Settings: at 0.1 µM
RECORDED METRIC: inhibition
Please append the unit to your numeric answer.

Sample records with inhibition:
CCCN1CCC=C(c2ccc(Nc3nc(Nc4ccccc4C(N)=O)c4cc[nH]c4n3)c(C)c2)C1 | 2.75%
COc1cc2ncn(-c3cc(OCc4ccccc4C(F)(F)F)c(C(N)=O)s3)c2cc1OC | 3.98%
CC1=C(C(=O)Nc2ccc3[nH]ncc3c2)C(c2ccc3ccccc3c2)CC(=O)N1 (stereo not drawn) | -1.05%
CC(=O)Nc1cccc(C#Cc2cncnc2Nc2ccc(OCc3cccc(F)c3)c(Cl)c2)n1 | 0.21%
Fc1cccc(COc2ccc(Nc3ncnc4cc(-c5ccc[nH]5)sc34)cc2Cl)c1 | 0.23%
CN1CCC(C(=O)Nc2n[nH]c3nnc(-c4ccccc4)cc23)CC1 | 5.95%
COc1cc2ncn(-c3cc(OCc4ccccc4Cl)c(C(N)=O)s3)c2cc1OC | 1.39%

Reported inhibition ( `COc1cccc(-n2ncc3c(N/N=C/c4cccc(F)c4)ncnc32)c1` ) = 3.19%

* * *

Entries and their inhibition
Target: Tyrosine-protein kinase TXK (Homo sapiens);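 also: each listed value is a mean percent inhibition of TXK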
Settings: at 0.1 µM
Answer in %, number only, no unit symbol.

Measured inhibition, `CS(=O)(=O)CCNCc1nc(-c2ccc3ncnc(Nc4ccc(F)c(Cl)c4)c3c2)cs1` : 3.78

Data point: `CS(=O)(=O)CCNCc1ccc(-c2ccc3ncnc(Nc4ccc(OCc5cccc(F)c5)c(C(F)(F)F)c4)c3c2)o1` ; inhibition = 3.11

`COC(=O)Nc1nc2cc(Oc3cccc(NC(=O)Nc4cc(C(F)(F)F)ccc4F)c3)ccc2[nH]1` yielded inhibition of 2.14

The molecule listed as `CCn1c(-c2nonc2N)nc2c(N3CCCC3)nccc21` shows inhibition equal to -0.75

Notebook: `O=C1NC(=O)C(c2cccc(Cl)c2)=C1Nc1ccc(O)c(Cl)c1` , inhibition read as 2.35

// sample `CCn1c(-c2nonc2N)nc2cnc(Oc3cccc(NC(=O)c4ccc(OCCN5CCOCC5)cc4)c3)cc21` , its inhibition was 5.3

* * *

Biological target: Ephrin type-B receptor 4 (Homo sapiens) (UniProt P54760);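 also: reported value is the mean percent inhibition of EPHB4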
Sequence (P54760 whole entry): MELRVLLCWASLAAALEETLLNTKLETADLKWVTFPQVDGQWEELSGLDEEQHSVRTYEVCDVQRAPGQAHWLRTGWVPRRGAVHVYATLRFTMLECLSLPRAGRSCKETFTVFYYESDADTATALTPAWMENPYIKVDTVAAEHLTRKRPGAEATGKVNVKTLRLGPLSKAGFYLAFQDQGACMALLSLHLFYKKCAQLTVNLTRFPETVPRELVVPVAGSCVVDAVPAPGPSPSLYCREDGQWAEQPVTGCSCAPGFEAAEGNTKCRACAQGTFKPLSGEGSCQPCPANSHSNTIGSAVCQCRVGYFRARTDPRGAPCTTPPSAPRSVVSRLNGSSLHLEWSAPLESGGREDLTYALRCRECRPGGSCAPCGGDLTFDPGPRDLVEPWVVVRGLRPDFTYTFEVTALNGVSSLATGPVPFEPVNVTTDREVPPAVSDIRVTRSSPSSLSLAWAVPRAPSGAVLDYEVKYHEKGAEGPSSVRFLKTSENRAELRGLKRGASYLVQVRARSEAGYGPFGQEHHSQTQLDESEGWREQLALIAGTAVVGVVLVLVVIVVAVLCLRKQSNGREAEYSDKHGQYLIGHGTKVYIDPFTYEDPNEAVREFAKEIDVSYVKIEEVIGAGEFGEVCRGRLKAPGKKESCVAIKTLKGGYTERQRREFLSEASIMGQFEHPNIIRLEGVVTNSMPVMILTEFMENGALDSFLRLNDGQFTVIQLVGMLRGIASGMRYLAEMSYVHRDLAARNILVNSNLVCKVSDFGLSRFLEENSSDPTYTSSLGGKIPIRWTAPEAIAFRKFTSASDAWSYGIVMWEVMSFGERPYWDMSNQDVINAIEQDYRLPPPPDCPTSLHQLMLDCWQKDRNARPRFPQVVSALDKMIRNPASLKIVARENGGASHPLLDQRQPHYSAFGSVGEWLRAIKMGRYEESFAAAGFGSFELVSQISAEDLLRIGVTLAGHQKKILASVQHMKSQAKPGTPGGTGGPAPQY
Details: at 1 µM
RECORDED METRIC: inhibition (%)
Could you give me the number in %? Just the number is fine.

Per the reported Ephrin type-B receptor 4 (Homo sapiens) (UniProt P54760) data, `CCn1c(-c2nonc2N)nc2c(C#CC(C)(C)O)nc(CN3CCCC3)cc21` has inhibition of 0.96

Tested on Ephrin type-B receptor 4 (Homo sapiens) (UniProt P54760), the item `CCn1c(-c2nonc2N)nc2c(C#CC(C)(C)O)nc(OC[C@@H](N)c3ccccc3)cc21` showed inhibition equal to 1.73

// assay Ephrin type-B receptor 4 (Homo sapiens) (UniProt P54760), entry `N#Cc1c(NC(=O)c2cccc3ccccc23)sc2c1CCCC2` , inhibition value = 3.28

Measured inhibition (Ephrin type-B receptor 4 (Homo sapiens) (UniProt P54760)), entry `CN(C)c1cc2c(Nc3ccc4nc(Cc5ccccc5)[nH]c4c3)ncnc2cn1` : 3.25

// returns inhibition for `CCn1c(-c2nonc2N)nc2ccncc21` with Ephrin type-B receptor 4 (Homo sapiens) (UniProt P54760); value = 0.27

Recorded inhibition for `CC(=O)Nc1cccc(C#Cc2cncnc2Nc2ccc(OCc3cccc(F)c3)c(Cl)c2)n1` on Ephrin type-B receptor 4 (Homo sapiens) (UniProt P54760) was 0.82

Let me check: `CCCN1CCC=C(c2ccc(Nc3nc(Nc4ccccc4C(N)=O)c4cc[nH]c4n3)c(C)c2)C1` , system Ephrin type-B receptor 4 (Homo sapiens) (UniProt P54760), measured inhibition is 3.5

Entry `CS(=O)(=O)Nc1ccc(N/C=C2\C(=O)Nc3ccccc32)cc1` , tested on Ephrin type-B receptor 4 (Homo sapiens) (UniProt P54760), has a reported inhibition of -0.64

* * *

Biological target: Serine/threonine-protein kinase Nek9 (Homo sapiens) (UniProt Q8TD19);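 also: each value is a mean percent inhibition of NEK9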
Sequence (whole entry): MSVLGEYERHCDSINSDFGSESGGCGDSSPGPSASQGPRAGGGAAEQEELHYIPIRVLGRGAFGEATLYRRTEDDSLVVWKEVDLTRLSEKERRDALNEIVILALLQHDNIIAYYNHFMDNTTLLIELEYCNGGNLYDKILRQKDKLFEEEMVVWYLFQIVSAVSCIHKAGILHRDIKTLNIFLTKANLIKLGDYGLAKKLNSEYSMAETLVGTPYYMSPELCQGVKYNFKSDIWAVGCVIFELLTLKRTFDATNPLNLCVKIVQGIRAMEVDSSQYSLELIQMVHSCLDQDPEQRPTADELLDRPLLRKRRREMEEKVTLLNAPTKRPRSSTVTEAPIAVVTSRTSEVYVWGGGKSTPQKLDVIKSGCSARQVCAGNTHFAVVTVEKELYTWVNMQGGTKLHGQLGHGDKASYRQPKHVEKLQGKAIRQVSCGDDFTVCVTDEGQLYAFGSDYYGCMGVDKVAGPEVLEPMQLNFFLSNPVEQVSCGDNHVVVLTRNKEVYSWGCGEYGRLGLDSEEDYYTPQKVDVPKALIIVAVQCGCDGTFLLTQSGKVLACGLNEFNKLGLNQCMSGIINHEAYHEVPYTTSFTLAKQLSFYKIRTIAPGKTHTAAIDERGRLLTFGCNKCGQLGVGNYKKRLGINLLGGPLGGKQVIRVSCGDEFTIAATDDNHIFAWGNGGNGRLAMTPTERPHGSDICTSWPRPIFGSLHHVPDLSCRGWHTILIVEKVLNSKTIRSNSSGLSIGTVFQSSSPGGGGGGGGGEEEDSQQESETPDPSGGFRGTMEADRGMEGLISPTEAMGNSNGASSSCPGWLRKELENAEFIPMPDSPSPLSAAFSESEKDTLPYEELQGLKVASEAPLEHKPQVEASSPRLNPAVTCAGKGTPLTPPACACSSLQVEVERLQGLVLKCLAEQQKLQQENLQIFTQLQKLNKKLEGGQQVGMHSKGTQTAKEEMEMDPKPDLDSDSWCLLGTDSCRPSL
Conditions: at 1 µM
# cutoff 5% applies to inhibition; >= gives true (1), < gives false (0)

Worked examples, 10 compounds total:
CCn1c(-c2nonc2N)nc2cncc(C(=O)N3CC[C@H](N)C3)c21 | true (1)
CCn1c(-c2nonc2N)nc2ccncc21 | true (1)
COc1ccccc1Nc1ncc(-c2ccccc2)o1 | true (1)
[O-][S+]1CCN(Cc2ccc(-c3ccc4ncnc(Nc5ccc(OCc6ccccc6)c(F)c5)c4c3)o2)CC1 | false (0)
CS(=O)(=O)CCN(CC#N)Cc1ccc(-c2ccc3ncnc(Nc4ccc(OCc5cccc(F)c5)c(Cl)c4)c3c2)o1 | false (0)
Nc1nc(-c2ccc3c(c2)C(=Cc2cc(Br)c(O)c(Br)c2)C(=O)N3)cs1 | true (1)
CC1=C(C(=O)Nc2ccc3[nH]ncc3c2)C(c2ccc3ccccc3c2)CC(=O)N1 (stereo not drawn) | false (0)
CCn1c(-c2nonc2N)nc2cncc(C(=O)N3CCNCC3)c21 | true (1)
COc1cc2c(cc1Nc1nc(N3CCc4ccccc43)c3cc[nH]c3n1)N(C(=O)CN(C)C)CC2 | false (0)
Cc1nn(C)c2cc(N(C)c3ccnc(Nc4cccc(S(N)(=O)=O)c4)n3)ccc12 | true (1)

**Q:** Identify whether the reported inhibition of the following compound is 5% or greater: CC1=C(C(=O)Nc2ccc3[nH]ncc3c2)C(c2ccc(Cl)c(Cl)c2)CC(=O)N1 (stereo not drawn)
**A:** false (0)

**Q:** Is the recorded value of inhibition equal to or greater than 5% for this compound? `CCc1cccc(NC(=O)Nc2ccc(Oc3ccc4nc(NC(=O)OC)[nH]c4c3)cc2)c1`
**A:** false (0)

* * *

Molecular target: Tyrosine-protein kinase Fes/Fps (Homo sapiens)
Settings: at 0.1 µM
Description: GSK_PKIS: FES mean inhibition at 0.1 uM [Nanosyn]
RECORDED METRIC: inhibition (%)
Field format: number, assumed %, no unit text.

COC(=O)Nc1nc2cc(Oc3cccc(NC(=O)Nc4cc(C(F)(F)F)ccc4F)c3)ccc2[nH]1 | -0.51

Measured inhibition, `c1cnn2ncc(-c3ccnc(Nc4ccc5c(c4)OCCO5)n3)c2c1` : 10.5

Note to self: inhibition recorded for `CS(=O)(=O)CCN(CC#N)Cc1ccc(-c2ccc3ncnc(Nc4ccc(OCc5cccc(F)c5)c(Cl)c4)c3c2)o1` was 0.82

Recorded inhibition (compound `CS(=O)(=O)CCNCc1ccc(-c2ccc3ncnc(Nc4ccc(OCc5ccccc5)c(Cl)c4)c3c2)o1` ): 0.53

inhibition for `Cc1nnc(-c2ccc(C)c(-c3ccc(C(=O)Nc4cccc(C#N)c4)cc3)c2)o1` is 0.91

Memo: `Cc1ccc(NC(=O)c2ccnc(N3CCCC3)c2)cc1-c1ccc(C(=O)NCC2CC2)cc1` , reported inhibition: 5.28

The compound listed as `Nc1nc(-c2ccccn2)c(-c2ccc3ncccc3n2)s1` shows inhibition equal to 2.12

// sample `Cc1nn(C)c2cc(N(C)c3ccnc(Nc4cccc(S(N)(=O)=O)c4)n3)ccc12` , its inhibition was 2.04

// field: inhibition; key: `O=C1NC(=O)C(c2ccc(Cl)cc2)=C1Nc1ccc(Cl)c(C(=O)O)c1` ; value = -3.1

// sample `NC(=O)c1ccc(-c2nc(-c3ccccn3)c(-c3ccc4c(c3)OCO4)[nH]2)cc1` , its inhibition was 1.52

// recorded inhibition for `CCn1c(-c2nonc2N)nc2c(N3CCCC3)nccc21` : -2.72

# inhibition (compound: `COc1ccc(-c2ccncc2)cc1C(N)=O` ) is 2.97

compound `[O-][S+]1CCN(Cc2ccc(-c3ccc4ncnc(Nc5ccc(OCc6ccccc6)c(F)c5)c4c3)o2)CC1` , inhibition observed: 1.91

Lab book: inhibition of `NCc1ccc(-c2nc(-c3ccc(Cl)c(O)c3)c(-c3ccncc3)[nH]2)cc1` noted as 0.2

Recorded result, `CN(C)c1cc2c(Nc3ccc4nc(Cc5ccccc5)[nH]c4c3)ncnc2cn1` , inhibition: 3.37

Lab note: measured inhibition of `CCn1c(-c2nonc2N)nc2c(C#CC(C)(C)O)nc(OC[C@@H](N)c3ccccc3)cc21` was -0.53

The value of inhibition measured for the compound `O=C1NC(=O)C(c2cccc(Cl)c2)=C1Nc1ccc(O)c(Cl)c1` turned out to be 0.55

The recorded inhibition for entry `N#Cc1c(NC(=O)c2cccc3ccccc23)sc2c1CCCC2` equals 2.2
